tested on: MV4-11 cells; assay: Inhibition of MV4-11 cell proliferation (CellTiterGlo, 72 h); type: cell-based; settings: Homo sapiens; 72 h growth inhibition
Lab note: compare IC50 with 0.2 µM, writing 1.0 if less and 0.0 if equal or more.

Reference set (5 entries):
CC(C)c1ccc(NC(=O)NC2CCN(c3ncnc4cc(OCCCN5CCN(C)CC5)ccc34)CC2)cc1 [Compound 75] :: 1.0
COc1cc2ncnc(N3CCCC(NC(=O)Nc4ccc(C(C)C)cc4)C3)c2cc1OC (centres unmarked) [Compound 28] :: 0.0
COc1cc2ncnc(N3CC(CNC(=O)Nc4ccc(OC(C)C)cc4)C3)c2cc1OC [Compound 25] :: 0.0
COc1cc2ncnc(N3CCCC(COC(=O)Nc4ccc(C(C)C)cc4)C3)c2cc1OC (centres unmarked) [Compound 4] :: 1.0
COc1cc2ncnc(N3CCC(C(=O)Nc4ccc(C(C)C)cc4)CC3)c2cc1OC [Compound 13] :: 0.0

Record COc1cc2ncnc(N3CCC(NC(=O)Nc4ccc(C5CCCCC5)cc4)C3)c2cc1OC (centres unmarked) [Compound 50] : is its IC50 strictly below 0.2 µM? 0.0

Given the entry COc1cc2ncnc(N3CCCC(COC(=O)Nc4ccc(OC5CCCC5)cc4)C3)c2cc1OC (centres unmarked) [Compound 57] , would its reported IC50 be below 0.2 µM? 1.0

Bench note: check whether CC(C)c1ccc(NC(=O)NC2CCN(c3ncnc4cc(OCCN5CCCC5=O)ccc34)CC2)cc1 [Compound 74] shows IC50 below 0.2 µM 1.0

====

target: isolated kinase domain of the human FLT3 receptor (a.a. 571-993) (Homo sapiens); construct: human FLT3 receptor (a.a. 571-993); test: FLT3 fluorescence polarization kinase assay
Sorting guide: entries reporting IC50 beneath 1000 nM go in the True pile, the rest go in the False pile.

Here are 4 molecules together with their reported answers.
COc1cc2ncnc(N3CCC(CC(=O)Nc4ccc(C(C)C)cc4)C3)c2cc1OC (centres unmarked) [Compound 6] :: True
COc1cc2ncnc(N3CCC(OC(=O)Nc4ccc(OC(C)C)cc4)CC3)c2cc1OC [Compound 3] :: True
COc1cc2ncnc(N3CCC(CNC(=O)Nc4ccc(C(C)C)cc4)CC3)c2cc1OC [Compound 18] :: True
COc1cc2ncc(C#N)c(N3CCC(OC(=O)Nc4ccc(C(C)C)cc4)C3)c2cc1OC (centres unmarked) [Compound 37] :: False

Problem: For the molecule COc1cc2ncnc(N3CCC(C(=O)Nc4ccc(C(C)C)cc4)CC3)c2cc1OC [Compound 13] , is IC50 under 1000 nM? True

Decide: IC50 of CC(C)Oc1ccc(NC(=O)OC2CCN(c3ccnc4ccccc34)C2)cc1 (centres unmarked) [Compound 39] strictly below 1000 nM? False

Dear reviewer, please state whether COc1cc2ncnc(N3CCC(NC(=O)Nc4ccc(C(C)C)cc4)C3)c2cc1OC (centres unmarked) [Compound 7] has IC50 strictly beneath 1000 nM. True

====

Target: wild-type FLT3 phosphorylation in Baf3 FLT3 cells (Homo sapiens)
Sequence (P36888 27-993): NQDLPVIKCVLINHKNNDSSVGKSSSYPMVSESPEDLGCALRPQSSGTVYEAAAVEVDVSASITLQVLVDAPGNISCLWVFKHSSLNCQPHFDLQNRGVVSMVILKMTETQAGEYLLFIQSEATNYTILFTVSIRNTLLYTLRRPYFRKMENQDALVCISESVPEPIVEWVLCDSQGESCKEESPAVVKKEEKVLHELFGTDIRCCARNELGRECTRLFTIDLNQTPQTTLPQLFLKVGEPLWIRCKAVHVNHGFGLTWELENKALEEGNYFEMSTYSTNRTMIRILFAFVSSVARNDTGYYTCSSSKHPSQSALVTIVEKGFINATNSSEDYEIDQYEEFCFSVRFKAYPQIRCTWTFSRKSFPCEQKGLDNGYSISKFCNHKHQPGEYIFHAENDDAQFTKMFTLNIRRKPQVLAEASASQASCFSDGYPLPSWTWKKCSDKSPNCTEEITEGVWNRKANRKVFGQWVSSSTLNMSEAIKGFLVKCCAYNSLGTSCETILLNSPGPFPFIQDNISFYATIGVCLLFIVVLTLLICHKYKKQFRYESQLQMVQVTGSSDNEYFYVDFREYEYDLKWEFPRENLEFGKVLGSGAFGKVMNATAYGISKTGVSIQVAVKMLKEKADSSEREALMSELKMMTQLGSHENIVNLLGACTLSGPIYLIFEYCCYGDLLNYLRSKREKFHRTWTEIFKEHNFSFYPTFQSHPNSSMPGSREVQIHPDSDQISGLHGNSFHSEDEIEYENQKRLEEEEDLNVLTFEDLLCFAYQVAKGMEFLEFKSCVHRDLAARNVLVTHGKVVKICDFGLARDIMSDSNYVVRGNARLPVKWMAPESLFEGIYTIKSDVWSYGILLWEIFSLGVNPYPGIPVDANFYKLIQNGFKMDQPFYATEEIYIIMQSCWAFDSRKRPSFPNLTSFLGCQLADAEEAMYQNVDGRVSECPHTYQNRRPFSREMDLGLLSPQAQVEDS
Experiment: Cell-based FLT3 receptor ELISA
Details: FLT ligand-induced FLT3 phosphorylation
MEASURED_ENDPOINT: log10 of IC50 (log10 of the value in µM)
In plain terms, each number is the log10 of measured IC50 in µM.

COc1cc2ncnc(N3CCC(N(C)C(=O)Nc4ccc(C(C)C)cc4)C3)c2cc1OC (centres unmarked) [Compound 19] :: -0.68
CC(C)c1ccc(NC(=O)OC2CCN(c3ncnc4ccc(I)cc34)C2)cc1 (centres unmarked) [Compound 20] :: -1.37
COc1cc2ncnc(N3CCC(CC(=O)Nc4ccc(C(C)C)cc4)CC3)c2cc1OC [Compound 5] :: -2.22
COc1cc2ncnc(N3CCCC(NC(=O)Nc4ccc(C(C)C)cc4)C3)c2cc1OC (centres unmarked) [Compound 28] :: 0.28

Consider the compound shown here: COc1cc2ncnc(N3CCC(NC(=O)Nc4ccc(OC5CCCC5)cc4)CC3)c2cc1OC [Compound 67] What is its recorded log10 of IC50? 0.15

Given COc1cc2ncnc(N3CCC(OC(=O)Nc4ccc(OC5CCCC5)cc4)CC3)c2cc1OC [Compound 55] , state its recorded log10 of IC50. -0.38

What does the record list as log10 of IC50 for COc1cc2ncnc(N3CCC(OC(=O)Nc4ccc(OC(C)C)cc4)CC3)c2cc1OC [Compound 3] ? -0.93

Request the reported log10 of IC50 associated with COc1cc2ncnc(N3CCC(C(=O)Nc4ccc(C(C)C)cc4)CC3)c2cc1OC [Compound 13] -1.05

Tell me the measured log10 of IC50 of COCCOc1ccc2c(N3CCC(NC(=O)Nc4ccc(C(C)C)cc4)CC3)ncnc2c1 [Compound 73] , please. -0.96
